- test_protocol: viability gain of MRP-1-high H69AR cells under doxorubicin, pilot screen, MRP-1 activator project, CellTiter-Glo, duplicate (AID 807);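 also: compound pretreatment 18-22 h then 72 h combined with doxorubicin; 0% = doxorubicin alone and 100% = vehicle without doxorubicin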
- measurement_parameters: H69AR viability with doxorubicin, CellTiter-Glo luminescence; at 10 µM; active compounds read high
Here the recorded viability increase is given for each entry.
Only the number, expressed in %, is required.

For orientation, consider the following solved cases.
COc1cccc(N2CCN(c3ncnc4c3cnn4-c3ccc(C)cc3C)CC2)c1: -8.59
COc1ccc(N(CC(=O)NCc2cccnc2)S(=O)(=O)c2c(C)nn(C)c2C)cc1: -1.49
COC(=O)c1sccc1NC(=O)c1ccc(Br)o1: -6.77

### Prompt What does the data say about its viability increase? Entry: CCc1nnc(NC(=O)c2ccc(S(=O)(=O)N(CCOC)CCOC)cc2)s1
### Response 3.39

### Prompt What does the data say about its viability increase? Entry: CCOC(=O)C1=C(C)Nc2nc(C)nn2C1c1ccc(C)cc1 (stereo not drawn)
### Response -1.84

### Prompt What does the data say about its viability increase? Entry: CCSc1nnc(NC(=O)CC)s1
### Response 1.42

### Prompt What does the data say about its viability increase? Entry: CCC(Sc1nc2ccccc2[nH]1)C(=O)Nc1cc(C)on1 (stereo not drawn)
### Response 1.02

### Prompt What does the data say about its viability increase? Entry: Clc1ccc(-c2nnc(N3CCCC3)nn2)cc1
### Response -2.71
